- run description: Light stability test (solar simulator, HPLC quantification)
- Assay type: physicochemical
- assay setup: solar simulator 40 W/m^2, 4 h; wt. % based on sum E isomer + Z isomer
Rule: Degradation after 4 h below 20% gives 1.0. Equal to or above 20% gives 0.0.

[[record]]
molecule = "Oc1ccc(C=Cc2cc(O)cc(O)c2)cc1 (mixture of isomers) [Resveratrol (E/Z mixture), 3,5,4′-trihydroxystilbene, reference compound]"
group_label = 0.0

[[record]]
molecule = "CC1=C(/C=C/C(C)=C/C=C/C(C)=C/C(=O)O)C(C)(C)CCC1 [Vitamin A acid, reference compound]"
group_label = 0.0

[[record]]
molecule = "COc1cc2c(cc1OC)C(C)(C)/C(=C\\c1ccccc1)C2=O [Compound (Ia)]"
group_label = 1.0

[[record]]
molecule = "COc1ccc(/C=C2/C(=O)c3ccccc3C2(C)C)cc1OC [(Ib)]"
group_label = 1.0

[[record]]
molecule = "CCCCOc1cc2c(cc1C)C(=O)/C(=C/c1ccc(OC)cc1)C2(C)C [(Id)]"
group_label = 1.0


---

- run description: Light stability test (solar simulator, HPLC quantification)
- Type: physicochemical
- assay setup: solar simulator 40 W/m^2, 2 h; wt. % based on sum E isomer + Z isomer
measurement kind: Degradation after 2 h (%)

[[record]]
compound = "CCCCOc1cc2c(cc1C)C(=O)/C(=C/c1ccc(OC)cc1)C2(C)C [(Id)]"
display_unit = "%"
val = 7

[[record]]
compound = "Oc1ccc(C=Cc2cc(O)cc(O)c2)cc1 (mixture of isomers) [Resveratrol (E/Z mixture), 3,5,4′-trihydroxystilbene, reference compound]"
display_unit = "%"
val = 77

[[record]]
compound = "COc1ccc(/C=C2/C(=O)c3ccccc3C2(C)C)cc1OC [(Ib)]"
display_unit = "%"
val = 4

[[record]]
compound = "CC1=C(/C=C/C(C)=C/C=C/C(C)=C/C(=O)O)C(C)(C)CCC1 [Vitamin A acid, reference compound]"
display_unit = "%"
val = 95

[[record]]
compound = "COc1cc2c(cc1OC)C(C)(C)/C(=C\\c1ccccc1)C2=O [Compound (Ia)]"
display_unit = "%"
val = 7

